Please respond with reported self-cleavage for every item in the list.
B1: LINE1-full (parent)
chain: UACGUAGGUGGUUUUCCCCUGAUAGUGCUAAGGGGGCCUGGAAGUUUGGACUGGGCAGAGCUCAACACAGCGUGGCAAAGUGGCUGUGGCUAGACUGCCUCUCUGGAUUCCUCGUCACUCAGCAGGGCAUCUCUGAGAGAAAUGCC

Variants of: B1
Assay remarks: self-cleavage, relative activity (ratio to wild type); higher = more cleavage; in vitro, sequencing; the parent is a self-cleaving ribozyme
Answers are plain numbers.

The following variants have reported results that may help.
>  <Mutation name>
G36U A140G

>  <self-cleavage>
1.18

$$$$
>  <Mutation name>
G25U A140G

>  <self-cleavage>
0.7

$$$$
>  <Mutation name>
C56A U73C

>  <self-cleavage>
0.05

$$$$
>  <Mutation name>
U5A G32A

>  <self-cleavage>
0.93

$$$$
>  <Mutation name>
A69G G139U

>  <self-cleavage>
0.36

$$$$

// each variant listed below needs its self-cleavage
1. U15C A59U
2. A43G C116U
3. A22G C131G
4. U115C G122A
5. U73A A129U

Result ::
[0.94, 1.22, 1.8, 1.77, 1.7]

// each variant listed below needs its self-cleavage
1. U1C U73G
2. A78U A94U
3. G80C
4. A30G C110U
5. G54A U100A
6. A59C A117G

Result ::
1.53
0.3
1.4
1.25
0.16
2.7

// each variant listed below needs its self-cleavage
1. C19A U134C
2. G35U A43U
3. G10C U13C
4. U85C A140G
5. A22U U119C
6. U23A U108C
7. U102C U130A
8. G33U U62C

Result ::
1: 0.67; 2: 1.33; 3: 0.94; 4: 0.15; 5: 1.52; 6: 1.45; 7: 2.21; 8: 0.04

From: the RNAGym collection of RNA variant scans (doi:10.7554/elife.90254)
